Numbers sourced from patent US20180340025A1.

Measured Ranking, Compet. data of individual entries
- target.entity: T1, human LAG-3 expressed on cells (human, UniProt P18627 23-525)
- T1 construct: whole, on cells; Treated as one protein; the host cell is named under assay; also called LAG-3-expressing CHO cells; LAG-3-transfected CHO cells
- T1 sequence (looked up): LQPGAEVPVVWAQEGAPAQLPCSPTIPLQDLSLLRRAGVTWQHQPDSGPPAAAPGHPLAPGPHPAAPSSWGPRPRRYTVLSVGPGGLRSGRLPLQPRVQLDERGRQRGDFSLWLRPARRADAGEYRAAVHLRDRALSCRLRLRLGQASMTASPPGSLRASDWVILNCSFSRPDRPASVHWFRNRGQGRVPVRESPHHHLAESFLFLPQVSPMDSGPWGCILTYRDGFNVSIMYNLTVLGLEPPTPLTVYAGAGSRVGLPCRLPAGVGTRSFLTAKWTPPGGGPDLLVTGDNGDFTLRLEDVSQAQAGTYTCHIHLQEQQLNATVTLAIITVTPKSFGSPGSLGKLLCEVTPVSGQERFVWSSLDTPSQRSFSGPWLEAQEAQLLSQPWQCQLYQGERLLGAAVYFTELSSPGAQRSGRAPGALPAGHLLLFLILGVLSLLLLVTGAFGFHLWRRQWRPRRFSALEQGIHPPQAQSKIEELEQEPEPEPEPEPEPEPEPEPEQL
- protocol.summary: rank of the clone by the competition binding data (test mAb against FITC-labeled murine BAP050 on LAG-3-expressing CHO cells), curve position relative to the chimeric mAb in two experiments
Write the value as a bare number.

{"columns": ["binder", "recorded.number"],
 "data": [
  ["BAP050-hum15 (antibody, human IgG4 S228P, kappa, V domains shown, humanized IgG4(S228P)/kappa, transient CHO supernatant) VH: EVQLVQSGAEVKKPGATVKISCKVSGFTLTNYGMNWIRQSPSRGLEWLGWINTDTGEPTYADDFKGRFVFSLDTSVSTAYLQICSLKAEDTAVYYCARNPPYYYGTNNAEAMDYWGQGTTVTVSS VL: EIVLTQSPDFQSVTPKEKVTITCSSSQDISNYLNWYQQKPGQAPRLLIYYTSTLHLGVPSRFSGSGSGTDFTLTISSLQPEDFATYYCQQYYNLPWTFGQGTKVEIKR", 20],
  ["BAP050-hum10 (antibody, human IgG4 S228P, kappa, V domains shown, humanized IgG4(S228P)/kappa, transient CHO supernatant) VH: QVQLVQSGAEVKKPGASVKVSCKASGFTLTNYGMNWVRQARGQRLEWIGWINTDTGEPTYADDFKGRFVFSLDTSVSTAYLQICSLKAEDTAVYYCARNPPYYYGTNNAEAMDYWGQGTTVTVSS VL: EIVLTQSPATLPVTLGQPASISCSSSQDISNYLNWYQQKPGQAPRLLIYYTSTLHLGVPSRFSGSGSGTDFTFTISSLEAEDAATYYCQQYYNLPWTFGQGTKVEIKR", 2]
]}

Let us examine a further case.
Short answer for BAP050-hum16 (antibody, human IgG4 S228P, kappa, V domains shown, humanized IgG4(S228P)/kappa, transient CHO supernatant) VH: EVQLVQSGAEVKKPGESLRISCKGSGFTLTNYGMNWVRQATGQGLEWMGWINTDTGEPTYADDFKGRVTISADKSISTAYLQWSSLKASDTAMYYCARNPPYYYGTNNAEAMDYWGQGTTVTVSS VL: EIVLTQSPDFQSVTPKEKVTITCSSSQDISNYLNWYQQKPGQAPRLLIYYTSTLHLGVPSRFSGSGSGTDFTLTISSLQPEDFATYYCQQYYNLPWTFGQGTKVEIKR : Ranking, Compet. data was 20
